# target_or_system: human GLP-1 receptor (human, UniProt P43220 24-463)
# assay_method_text: cell-based or functional assay
Listing of recorded hGLP1R GTPgS Rel EC50 by entry.
recorded_metric: hGLP1R GTPgS Rel EC50 (nM)

{"binder": "YXEGTFTSDYSIXLDEKAQXAFIEYLIAGGPSSGAPPPS (Aib2, αMeL13, K17 conjugated to (2-[2-(2-Amino-ethoxy)-ethoxy]-acetyl)2-(γ-Glu)-CO-(CH2)18-CO2H, Aib20, C-terminal amide (NH2)) [Example 332]", "recorded_metric": "hGLP1R GTPgS Rel EC50", "reported_result": 0.453}
{"binder": "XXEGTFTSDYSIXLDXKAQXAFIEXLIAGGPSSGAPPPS (D-Tyr1, Aib2, αMeL13, Orn16, K17 conjugated to (2-[2-(2-Amino-ethoxy)-ethoxy]-acetyl)2-(γ-Glu)-CO-(CH2)16-CO2H, Aib20, αMeY25, C-terminal amide (NH2)) [Example 377]", "recorded_metric": "hGLP1R GTPgS Rel EC50", "reported_result": 0.356}
{"binder": "YXEGTFTSDYSIXLDEKAQXAFIEYLIEGGPSSG (Aib2, αMeL13, K17 conjugated to (2-[2-(2-Amino-ethoxy)-ethoxy]-acetyl)2-(γ-Glu)-CO-(CH2)16-CO2H, Aib20, C-terminal amide (NH2)) [Example 303]", "recorded_metric": "hGLP1R GTPgS Rel EC50", "reported_result": 0.547}
{"binder": "XXEGTFTSDYSIXLDKKAQXEFIXYLIEGGPSSGAPPPS (D-Tyr1, Aib2, αMeL13, K17 conjugated to (2-[2-(2-Amino-ethoxy)-ethoxy]-acetyl)2-(γ-Glu)-CO-(CH2)18-CO2H, Aib20, D-Glu24, C-terminal amide (NH2)) [Example 353]", "recorded_metric": "hGLP1R GTPgS Rel EC50", "reported_result": 1.96}
